Values were extracted from the supplement of paper PMC8728848.

Molecular target: Fuc(a1-2)[GalNAc(a1-4)]Gal(b1-4)GlcNAc
Test: glycan array binding signal (z-score within array); higher = stronger binding
Conditions: glycan notation: IUPAC condensed, linker removed
This excerpt belongs to a sample that is enriched for the strongest signals.
Quantity: glycan array binding signal (z-score)

These solved cases illustrate the format of a correct answer.
# binder LFA (Limax flavus) (protein) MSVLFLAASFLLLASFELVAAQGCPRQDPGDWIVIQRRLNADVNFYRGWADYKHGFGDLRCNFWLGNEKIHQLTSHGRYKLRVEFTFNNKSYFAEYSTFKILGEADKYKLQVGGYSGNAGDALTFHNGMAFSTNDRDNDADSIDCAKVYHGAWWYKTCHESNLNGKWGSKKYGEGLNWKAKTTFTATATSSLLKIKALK ; its glycan array binding signal (z-score) = 3.52

Measured glycan array binding signal (z-score) of MGL (Homo sapiens), Q8IUN9 (protein) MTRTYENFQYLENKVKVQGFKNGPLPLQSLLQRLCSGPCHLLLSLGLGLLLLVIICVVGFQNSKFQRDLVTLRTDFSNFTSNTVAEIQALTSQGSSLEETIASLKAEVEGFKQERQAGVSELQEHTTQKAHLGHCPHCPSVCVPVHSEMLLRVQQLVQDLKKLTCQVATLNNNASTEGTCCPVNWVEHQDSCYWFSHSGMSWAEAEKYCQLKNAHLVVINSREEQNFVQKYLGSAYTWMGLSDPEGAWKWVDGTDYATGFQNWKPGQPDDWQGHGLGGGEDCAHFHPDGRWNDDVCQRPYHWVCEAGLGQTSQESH : 3.39

Entry DrGal3 (Danio rerio) (protein) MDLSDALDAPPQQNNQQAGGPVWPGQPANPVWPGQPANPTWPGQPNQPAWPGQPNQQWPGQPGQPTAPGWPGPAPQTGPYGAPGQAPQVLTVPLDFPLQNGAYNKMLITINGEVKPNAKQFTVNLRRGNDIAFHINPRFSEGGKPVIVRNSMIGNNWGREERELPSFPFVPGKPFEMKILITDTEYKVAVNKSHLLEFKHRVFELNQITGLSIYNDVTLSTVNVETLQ , glycan array binding signal (z-score) reported as -0.233

For reference, reported glycan array binding signal (z-score) for Mindin (Homo sapiens), Q9BUD6 (protein) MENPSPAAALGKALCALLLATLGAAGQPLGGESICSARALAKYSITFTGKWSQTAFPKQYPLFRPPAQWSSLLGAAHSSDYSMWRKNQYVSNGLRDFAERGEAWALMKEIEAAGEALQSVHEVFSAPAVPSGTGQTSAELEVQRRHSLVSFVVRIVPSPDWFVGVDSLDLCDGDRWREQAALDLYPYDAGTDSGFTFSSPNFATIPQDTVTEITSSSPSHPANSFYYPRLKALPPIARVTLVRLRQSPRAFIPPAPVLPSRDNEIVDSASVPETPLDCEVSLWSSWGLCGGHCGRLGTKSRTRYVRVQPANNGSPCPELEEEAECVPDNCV stands at 2.81

Note: attention shifts to another entry.
Note to self: glycan array binding signal (z-score) recorded for Strep tagII-anxA1 (Homo sapiens), P04083 (protein) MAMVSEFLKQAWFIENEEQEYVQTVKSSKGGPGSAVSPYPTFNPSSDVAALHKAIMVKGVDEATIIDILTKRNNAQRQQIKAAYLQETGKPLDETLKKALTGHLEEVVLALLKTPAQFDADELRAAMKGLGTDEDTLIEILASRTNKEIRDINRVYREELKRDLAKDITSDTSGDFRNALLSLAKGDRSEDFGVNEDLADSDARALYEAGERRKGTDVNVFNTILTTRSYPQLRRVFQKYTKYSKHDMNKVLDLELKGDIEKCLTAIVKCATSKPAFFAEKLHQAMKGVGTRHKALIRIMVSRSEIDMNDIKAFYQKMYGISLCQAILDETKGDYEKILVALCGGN was -0.304
